Experiment: physchem
Conditions: aqueous buffer, pH 10
measured_parameter: solubility (µg/mL)
The answer is to be given in µg/mL; state only the numeric part.

Please fill in: solubility reported for NC(Cc1ccc(O)cc1)C(=O)NC1CCCCNC(=O)C(Cc2ccccc2)NC(=O)C(Cc2c[nH]c3ccccc23)NC1=O [Free Base, H-Tyr-c-[D-Lys-Trp-Phe]] = 6

====

Experiment: physchem
Details: aqueous buffer, pH 7
measured_parameter: solubility

Please fill in: solubility reported for NC(Cc1ccc(O)cc1)C(=O)NC1CCCCNC(=O)C(Cc2ccccc2)NC(=O)C(Cc2c[nH]c3ccccc23)NC1=O [Free Base, H-Tyr-c-[D-Lys-Trp-Phe]] = < 3 µg/mL
